- TARGET OF ASSAY: PPAR-α (Homo sapiens)
- Construct: hPPARα/LBD encoding amino acids 175-468; expressed in transfected cells; host or cells: HEK293T
- Sequence (Q07869 175-468): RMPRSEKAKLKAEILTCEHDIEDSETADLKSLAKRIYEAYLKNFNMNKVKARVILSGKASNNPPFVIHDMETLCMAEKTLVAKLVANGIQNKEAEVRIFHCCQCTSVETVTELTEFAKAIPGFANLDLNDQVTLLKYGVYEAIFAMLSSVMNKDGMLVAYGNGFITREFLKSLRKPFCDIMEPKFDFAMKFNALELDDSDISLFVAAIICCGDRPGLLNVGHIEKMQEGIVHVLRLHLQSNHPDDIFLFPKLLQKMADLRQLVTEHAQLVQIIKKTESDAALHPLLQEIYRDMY
- PROTOCOL TEXT: GAL4-DBD/PPAR-LBD luciferase reporter agonist assay in HEK293T cells, PPAR-α
- Type: cell-based
- CONDITION NOTES: Table 9
READOUT: EC50 (µM)
Quick note: give the figure in µM, leave out the unit.

Recorded results for 3 molecules are shown here.
| MOLECULE | MEASUREMENT UNITS | EC50 |
| --- | --- | --- |
| O=C(Nc1ccccc1O)C1CCN(C(=O)c2ccc(OCC3CCCO3)cc2)CC1 (centres unmarked) | µM | 7.06 |
| COc1cc(CNCc2cc(C)on2)ccc1OCC(=O)Nc1ccc(Br)cc1 | µM | 7.56 |
| O=C(NCc1ccc(COCC(F)(F)F)cc1)c1cc(-c2ccccc2)[nH]n1 | µM | 5.48 |

Shift focus to the following entry.
Using the record for CCOC(=O)NC(=O)COC(=O)c1c2c(nc3ccccc13)/C(=C\c1ccc(OC)cc1)CC(C)C2 (centres unmarked) , report its EC50.
1.41
